# STUDY TARGET: human recombinant MC3R (CHO-K1/Gα15 stable cell line, GenScript) (human, UniProt P41968 1-323)
# Sequence (P41968 whole entry): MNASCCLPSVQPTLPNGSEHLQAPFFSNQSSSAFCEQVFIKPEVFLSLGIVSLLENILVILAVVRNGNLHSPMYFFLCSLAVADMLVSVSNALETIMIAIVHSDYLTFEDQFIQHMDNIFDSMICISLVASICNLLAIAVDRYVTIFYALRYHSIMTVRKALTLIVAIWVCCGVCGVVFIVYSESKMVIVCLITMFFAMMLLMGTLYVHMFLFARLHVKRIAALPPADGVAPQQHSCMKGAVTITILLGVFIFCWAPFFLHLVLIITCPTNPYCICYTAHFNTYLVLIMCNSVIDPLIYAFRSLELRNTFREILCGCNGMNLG
# PROTOCOL SUMMARY: cell-based or functional assay
Non-standard residues stand in square brackets, D forms with d. Nle = CCCC[C@H](N)C(=O)O
Items are presented alongside their recorded MC3R IC50.
Response body: numeric value in nM, unit text excluded.

Record request: MC3R IC50 value, item Ac-EHFRWGKPV-NH2 [KR-004]
937

Next, consider the following binder.
Sample Ac-[Nle]EHFRWGK-NH2 (SMILES CCCC[C@H](NC(C)=O)C(=O)N[C@@H](CCC(=O)O)C(=O)N[C@@H](Cc1c[nH]cn1)C(=O)N[C@@H](Cc1ccccc1)C(=O)N[C@@H](CCCNC(=N)N)C(=O)N[C@@H](Cc1c[nH]c2ccccc12)C(=O)NCC(=O)N[C@@H](CCCCN)C(N)=O) [KR-035] — what was its MC3R IC50?
276
